tested on: ENR+CD organoids (ISC to Paneth cell differentiation); assay: Primary screen: basal (non-stimulated) lysozyme secretion LYZ.NS, 2.5-D 384-well ENR+CD organoid differentiation; format: cell-based, mouse; conditions: primary screen, dose 0.08 uM, standard z score
Structures can show the parent of a compound that is named as a salt.
Assign Criterion met to entries whose Z.LYZ.NS meets or exceeds 0.7; assign Criterion not met to the rest.

{"columns": ["compound", "target.of.assay", "answer.label"],
 "data": [
  ["O=[N+]([O-])c1ccc2c(c1)S(=O)(=O)C=C2", "ENR+CD organoids (ISC to Paneth cell differentiation)", "Criterion met"],
  ["Cc1cc2c(cc1CC(=O)c1sccc1S(=O)(=O)Nc1onc(C)c1Cl)OCO2 [Sitaxentan sodium]", "ENR+CD organoids (ISC to Paneth cell differentiation)", "Criterion met"],
  ["CCOC(=O)c1ccc(N2NC(=O)/C(=C/c3ccc([N+](=O)[O-])o3)C2=O)cc1", "ENR+CD organoids (ISC to Paneth cell differentiation)", "Criterion met"],
  ["COc1ccc(C(=O)Nc2sc3c(c2C(N)=O)CCCC3)cc1OC", "ENR+CD organoids (ISC to Paneth cell differentiation)", "Criterion met"],
  ["CN1CCC(CNc2ccc3ncc(-c4cccc(OC(F)(F)F)c4)n3n2)CC1 [SGI-1776free base]", "ENR+CD organoids (ISC to Paneth cell differentiation)", "Criterion met"],
  ["O=C(Nc1ccccc1-c1cn2c(CN3CCNCC3)csc2n1)c1cnc2ccccc2n1", "ENR+CD organoids (ISC to Paneth cell differentiation)", "Criterion met"],
  ["Cn1cnc2c(F)c(Nc3ccc(Br)cc3Cl)c(C(=O)NOCCO)cc21", "ENR+CD organoids (ISC to Paneth cell differentiation)", "Criterion not met"],
  ["COc1ccc(C2CNC(=O)C2)cc1OC1CCCC1 (stereo not drawn) [Rolipram, reference compound]", "ENR+CD organoids (ISC to Paneth cell differentiation)", "Criterion met"],
  ["C#Cc1cccc(Nc2ncnc3cc(OCCOC)c(OCCO)cc23)c1", "ENR+CD organoids (ISC to Paneth cell differentiation)", "Criterion met"],
  ["O=C(O)c1ccc(Nc2ncc3c(n2)-c2ccc(Cl)cc2C(c2c(F)cccc2F)=NC3)cc1", "ENR+CD organoids (ISC to Paneth cell differentiation)", "Criterion not met"],
  ["NC(=O)c1ccc(-c2nc(-c3ccccn3)c(-c3ccc4c(c3)OCO4)[nH]2)cc1", "ENR+CD organoids (ISC to Paneth cell differentiation)", "Criterion met"],
  ["Cc1ccc(C(=O)N(CCCN)[C@@H](c2oc3cc(Cl)ccc3c(=O)c2Cc2ccccc2)C(C)C)cc1", "ENR+CD organoids (ISC to Paneth cell differentiation)", "Criterion not met"],
  ["CCn1c(N)c(C(=O)NC)c(=O)c2ccc(C#C[C@@](C)(O)COC)nc21", "ENR+CD organoids (ISC to Paneth cell differentiation)", "Criterion not met"],
  ["CC(NC(=O)c1ccccc1/N=C/c1c(O)ccc2ccccc12)c1ccccc1 (stereo not drawn)", "ENR+CD organoids (ISC to Paneth cell differentiation)", "Criterion met"],
  ["CN[C@H]1CC[C@@H](c2ccc(Cl)c(Cl)c2)c2ccccc21 [Sertraline HCl]", "ENR+CD organoids (ISC to Paneth cell differentiation)", "Criterion not met"],
  ["COc1c(C)c(C(=O)c2ccc(N)c(C(=O)[O-])c2)n2ccccc12.[Na+] [SSR128129E]", "ENR+CD organoids (ISC to Paneth cell differentiation)", "Criterion met"],
  ["O=[N+]([O-])C=Cc1ccc2c(c1)OCO2", "ENR+CD organoids (ISC to Paneth cell differentiation)", "Criterion not met"],
  ["CO[C@H]1C[C@@H]2CC[C@@H](C)[C@@](O)(O2)C(=O)C(=O)N2CCCC[C@H]2C(=O)O[C@H]([C@H](C)C[C@@H]2CC[C@@H](OP(C)(C)=O)[C@H](OC)C2)CC(=O)[C@H](C)/C=C(\\C)[C@@H](O)[C@@H](OC)C(=O)[C@H](C)C[C@H](C)/C=C/C=C/C=C/1C", "ENR+CD organoids (ISC to Paneth cell differentiation)", "Criterion not met"],
  ["COc1cc2c(cc1OC)CN(CCc1ccc(NC(=O)c3cc(OC)c(OC)cc3NC(=O)c3cnc4ccccc4c3)cc1)CC2", "ENR+CD organoids (ISC to Paneth cell differentiation)", "Criterion not met"],
  ["O=S(=O)(c1ccccc1)N(CC(F)(F)F)c1ccc(C(O)(C(F)(F)F)C(F)(F)F)cc1", "ENR+CD organoids (ISC to Paneth cell differentiation)", "Criterion met"],
  ["CC(=O)O[C@H]1C[C@@H]2CC[C@@H]3[C@H](CC[C@@]4(C)[C@H]3C[C@H]([N+]3(C)CCCCC3)[C@@H]4OC(C)=O)[C@@]2(C)C[C@@H]1[N+]1(C)CCCCC1.[Br-].[Br-] [Pancuronium dibromide]", "ENR+CD organoids (ISC to Paneth cell differentiation)", "Criterion met"],
  ["O=C(O)/C=C/c1ccc(Cn2ccnc2)cc1 [Ozagrel]", "ENR+CD organoids (ISC to Paneth cell differentiation)", "Criterion not met"],
  ["Nc1nc(CC(=O)Nc2ccc(CCNC[C@H](O)c3ccccc3)cc2)cs1", "ENR+CD organoids (ISC to Paneth cell differentiation)", "Criterion met"],
  ["CC(=O)OCC(=O)NCCCOc1cccc(CN2CCCCC2)c1 [Roxatidine Acetate HCl]", "ENR+CD organoids (ISC to Paneth cell differentiation)", "Criterion met"]
]}
